// read-out Ki, gathered for Papain (Carica papaya) from published studies

Compound | Unit text | Ki
CC(C)[C@H](NC(=O)OC(C)(C)C)C(=O)NCC#N | µM | 2
CCOC(=O)[C@H]1O[C@@H]1C(=O)N[C@@H](CC(C)C)C(=O)NCCC(C)C | µM | 52
CC(=O)[C@H]1O[C@@H]1C(=O)N[C@@H](CC(C)C)C(=O)NCCC(C)C | µM | 170
C#CCNC(=O)[C@H](Cc1ccccc1)NC(=O)OC(C)(C)C | µM | 497
CC(C)(C)OC(=O)N[C@@H](Cc1ccc(O)cc1)C(=O)NCC#N | µM | 0.19
C=CCNC(=O)[C@H](Cc1ccccc1)NC(=O)OC(C)(C)C | µM | 497
CCCCOC(=O)C(=O)C(CC)NC(=O)C(CC(C)C)NC(=O)OCc1ccccc1 (centres undefined) | µM | 10
CCNC(=O)C(=O)C(CC)NC(=O)C(CC(C)C)NC(=O)OCc1ccccc1 (centres undefined) | µM | 93
C[C@@H](C#N)N(C)C(=O)[C@H](Cc1ccccc1)NC(=O)OCc1ccccc1 | µM | 750
CC(C)CC(NC(=O)OCc1ccccc1)C(=O)NC(Cc1ccccc1)C(=O)C(=O)O (centres undefined) | µM | 7
CC(C)(C)OC(=O)N[C@@H](CC1CC1)C(=O)NCC#N | µM | 13
O=C(CC[C@H]1CCC[C@@H](NC(=O)[C@H](Cc2ccccc2)NC(=O)OCc2ccccc2)C1=O)N[C@@H](Cc1ccccc1)C(=O)O | µM | 870
CC(C)(C)OC(=O)N[C@@H](Cc1ccc2ccccc2c1)C(=O)NCC#N | µM | 0.021
CCCCNC(=O)C(=O)C(CC)NC(=O)C(CC(C)C)NC(=O)OCc1ccccc1 (centres undefined) | µM | 93
CC(C)(C)OC(=O)N[C@@H](Cc1ccccc1Br)C(=O)NCC#N | µM | 0.46
N#CCNC(=O)[C@H](Cc1ccccc1)NC(=O)c1ccc(-c2ccccc2)cc1 | µM | 0.016
COC(=O)[C@H](C)NC(=O)[C@H](C)NC(=O)C[C@@H]1O[C@H]1CNC(=O)[C@H](Cc1ccccc1)NC(=O)OCc1ccccc1 | µM | 73
N#CCNC(=O)[C@H](Cc1ccccc1)NC(=O)c1ccccc1 | µM | 0.062
CC(C)(C)OC(=O)N[C@@H](Cc1cccc2ccccc12)C(=O)NCC#N | µM | 28
CC(C)(C)OC(=O)N[C@@H](Cc1cccc(-c2ccccc2)c1)C(=O)NCC#N | µM | 1.2
CCOC(=O)C(=O)C(CC)NC(=O)C(CC(C)C)NC(=O)OCc1ccccc1 (centres undefined) | µM | 220
CC(C)(C)OC(=O)N[C@H](Cc1ccccc1)C(=O)NCC#N | µM | 41
O=C(N[C@@H](Cc1ccccc1)C(=O)NCC1CO1)OCc1ccccc1 (some centres undefined) | µM | 390
CC(C)(C)OC(=O)N[C@@H](Cc1ccsc1)C(=O)NCC#N | µM | 0.57
CCC(NC(=O)C(CC(C)C)NC(=O)OCc1ccccc1)C(=O)C(=O)NCc1ccccc1 (centres undefined) | µM | 38
CC(C)(C)OC(=O)N[C@@H](Cc1c[nH]c2ccccc12)C(=O)NCC#N | µM | 7.6
CNC(=O)[C@@H](NC(=O)NNC(=O)[C@H](Cc1ccccc1)NC(C)=O)C(C)C | µM | 0.032
COC(=O)CCCNC(=O)C(Cc1ccccc1)NC(C)=O (centres undefined) | µM | 19500
CC(C)(C)OC(=O)N[C@@H](Cc1ccccc1)C(=O)NCC#N | µM | 0.26
CCCCOC(=O)[C@@H](NC(=O)NNC(=O)[C@H](Cc1ccccc1)NC(C)=O)C(C)C | µM | 0.059
CC(C)(C)OC(=O)N[C@@H](COCc1ccccc1)C(=O)NCC#N | µM | 11
CCCCC(NC(=O)C(CC(C)C)NC(=O)OCc1ccccc1)C(=O)C(=O)OCC (centres undefined) | µM | 190
CCOC(=O)C(=O)C(Cc1ccc(Cl)cc1)NC(=O)C(CC(C)C)NC(=O)OCc1ccccc1 (centres undefined) | µM | 150
CCC[C@H](NC(=O)OC(C)(C)C)C(=O)NCC#N | µM | 0.75
O=C(CC[C@H]1CCC[C@@H](NC(=O)[C@H](Cc2c[nH]c3ccccc23)NC(=O)OCc2ccccc2)C1=O)N[C@@H](Cc1ccccc1)C(=O)O (stereo in doubt; 16A) | µM | 250
CC(C)(C)OC(=O)N[C@@H](Cc1csc2ccccc12)C(=O)NCC#N | µM | 7.4
CC(C)(C)OC(=O)NN(Cc1ccccc1)C(=O)NCC#N | µM | 725
CCCCOC(=O)C(=O)C(Cc1ccccc1)NC(=O)C(CC(C)C)NC(=O)OCc1ccccc1 (centres undefined) | µM | 15
CCCCNC(=O)[C@@H](NC(=O)NNC(=O)[C@H](Cc1ccccc1)NC(C)=O)C(C)C | µM | 0.028
